The following compounds are shown together with reported melting point values.

Prompt line: Look up melting point for this compound: COc1ccc(Cl)c(NC(=O)NN)c1
Response line: 159 to 161 °C

Prompt line: Can you handle COC(=O)c1cc(S(N)(=O)=O)ccc1F next?
Response line: 97 to 99 °C

Prompt line: Can you handle CC(C)(C)[Si](C)(C)Oc1cc(C(=O)O)cc2ccccc12 next?
Response line: 153 to 155 °C

Prompt line: Can you handle COC(=O)c1n[nH]c(=O)c2noc(C)c12 next?
Response line: 215 to 217 °C

----------
The following compounds are shown together with reported melting point values.

>>> measured_value("Cc1cc(C)cc(Oc2ccc(N)cc2)c1")
"55 to 57 °C"

Prompt line: Look up melting point for this compound: CCOC(=O)/C(=C(/O)C(C)Cl)c1nc(C)cs1 (stereo not given)
Response line: 123 to 125 °C

Prompt line: Can you handle Nc1nonc1-c1ccc(Br)cc1 next?
Response line: 141 to 143 °C

Prompt line: Can you handle FC(F)(F)Cn1c(S)nnc1N1CCOCC1 next?
Response line: 175 to 177 °C

Prompt line: Can you handle CCC(NC(=O)c1ccccc1)C(N)=S (stereo not given) next?
Response line: 244 to 246 °C

Prompt line: Can you handle CC(C)C(=O)NC(C)C(=O)O (stereo not given) next?
Response line: 154 to 156 °C

Prompt line: Can you handle Nn1cnc2c(cnn2-c2ccccc2)c1=O next?
Response line: 233 to 235 °C

Data provenance: a melting point compilation (Tetko et al.)
